- STUDY_SYSTEM: T1, recombinant human CD38 (Acrobio, ref CD8-H5224) (human, UniProt P28907 43-300)
- T1 construct: Bought protein used in Biacore
- PROTOCOL: SPR, Biacore 3000, CM5 chip, recombinant human CD38
RESULT_TYPE: pKd
Notebook: values listed as pKd are -log10 of the concentration (mol/L).

Item under review: NSRDQNFVILEFPVE [CD31 peptide NSRDQNFVILEFPVE (linear)] . Reported pKd?
8.64
